Assign pIC50 to each entry below.
Biological target: medaka Esr1 (mEsr1) (Oryzias latipes, UniProt P50241)
Construct: expressed in transfected cells; host or cells: HEK293 (human embryonic kidney cells), transient transfection with FuGENE HD
Sequence (P50241 1-620): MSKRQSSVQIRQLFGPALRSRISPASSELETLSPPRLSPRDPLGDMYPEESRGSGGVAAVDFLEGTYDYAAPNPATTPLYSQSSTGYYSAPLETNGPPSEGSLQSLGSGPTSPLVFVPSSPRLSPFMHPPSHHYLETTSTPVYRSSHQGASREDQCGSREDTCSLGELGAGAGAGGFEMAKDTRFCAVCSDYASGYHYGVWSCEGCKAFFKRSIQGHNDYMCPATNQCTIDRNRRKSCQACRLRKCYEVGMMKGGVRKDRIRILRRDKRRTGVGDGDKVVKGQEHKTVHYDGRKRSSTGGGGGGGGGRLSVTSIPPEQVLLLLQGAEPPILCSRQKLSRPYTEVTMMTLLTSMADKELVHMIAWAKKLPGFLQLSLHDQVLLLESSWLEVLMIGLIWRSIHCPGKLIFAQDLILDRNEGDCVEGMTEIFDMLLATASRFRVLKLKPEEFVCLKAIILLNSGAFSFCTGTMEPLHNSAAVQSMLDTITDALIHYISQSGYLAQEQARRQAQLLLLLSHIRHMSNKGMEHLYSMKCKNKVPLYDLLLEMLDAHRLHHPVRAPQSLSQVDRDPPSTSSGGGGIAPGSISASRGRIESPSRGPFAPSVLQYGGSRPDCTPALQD
Assay: Medaka Esr1 reporter gene assay (RGA), antagonist assay with 1 nM E2, HEK293 cells
Format: cell-based, Japanese medaka (Oryzias latipes)
pIC50: −log10 of the molar value.

Solved entries (count: 5):
CC(=O)[C@H]1CC[C@H]2[C@@H]3CCC4=CC(=O)CC[C@]4(C)[C@H]3CC[C@]12C	< 5.00
CCCN(CCOc1c(Cl)cc(Cl)cc1Cl)C(=O)n1ccnc1	< 5.00
C#C[C@]1(O)CC[C@H]2[C@@H]3CCC4=CC(=O)CC[C@@H]4[C@H]3CC[C@@]21CC	< 4.00
C[C@]12C=CC3=C4CCC(=O)C=C4CC[C@H]3[C@@H]1CC[C@@H]2O	< 5.00
CC/C(=C(\c1ccc(O)cc1)c1ccc(OCCN(C)C)cc1)c1ccccc1 [4HTAM, 4‐hydroxytamoxifen]	9.28

Item CC(=O)N1CCN(c2ccc(OCC3COC(Cn4ccnc4)(c4ccc(Cl)cc4Cl)O3)cc2)CC1 (stereo not drawn) with medaka Esr1 (mEsr1) (Oryzias latipes, UniProt P50241) - pIC50?
< 5.00

###

system: Japanese medaka (Oryzias latipes); test: Fish short-term reproduction assay (FSTRA, OECD TG229), 21-day flow-through exposure; details: within the test concentrations, 21-day exposure
Measure: effect on fecundity (number of total eggs), in words

Solved entries (count: 4):
C[C@]12CC[C@@H]3c4ccc(O)cc4CC[C@H]3[C@@H]1CC[C@@H]2O [E2, 17β‐Estradiol]	significant decrease
CCCN(CCOc1c(Cl)cc(Cl)cc1Cl)C(=O)n1ccnc1	No effect
Cc1cc(O)ccc1Cl	No effect
C#C[C@]1(O)CC[C@H]2[C@@H]3CCc4cc(O)ccc4[C@H]3CC[C@@]21C	significant decrease

// below: effect on fecundity (number of total eggs), in words requested for another molecule
What effect on fecundity (number of total eggs), in words value was documented for this molecule, CCC(C)(C)c1ccc(O)cc1 ?
significant decrease
